TGI by entry:
# Test system: LXFL 529 NSCLC
# Assay remarks: NCI tumour cell line growth inhibition, 48 h

Compound: O=[N+]([O-])c1ccc(N=Nc2c(O)[nH]c3ccc(Br)cc23)cc1
Target or test system: LXFL 529 NSCLC
Reading: > 68.7 µM

Entry COC(=O)C1=C(c2cc(OC)c(OC)c(OC)c2)OC(c2ccc3c(c2)OCO3)C1 (stereo unspecified) — recorded TGI = 90 µM

Entry Cn1c2ccccc2c2ccc3c(c21)C(=O)C=CC3=O — recorded TGI = 8.26 µM

Entry O=C1[C@H]2ON(c3ccccc3)C(c3ccc(Cl)cc3Cl)[C@H]2C(=O)N1c1ccc(Cc2ccc(N3C(=O)[C@@H]4ON(c5ccccc5)C(c5ccc(Cl)cc5Cl)[C@@H]4C3=O)cc2)cc1 (stereo partly specified) — recorded TGI = > 100 µM

Entry O=[N+]([O-])c1nccn1COCCI — recorded TGI = > 100 µM

Entry CC1(C)C(=NN=C(N)N)C(C)(C)C1=NN=C(N)N — recorded TGI = > 100 µM
